system: RPS6KB1 (human)
recorded-conditions: compound 10.0 µM
measurement-type: inhibition (%)

1) C[C@@H](NC(=O)c1c[nH]c2ncc(-c3nn(C)c4cc(Cl)cc(F)c34)nc12)C(=O)N1CC(C#N)C1: -33
2) C[C@@H](NC(=O)c1c[nH]c2ncc(-c3ncn4cc(F)cc(F)c34)nc12)C(=O)N1CC(C#N)C1: -42
3) CC[C@@H](NC(=O)c1c[nH]c2ncc(-c3nn(C)c4cc(Cl)ccc34)nc12)C(=O)N1CC(C#N)C1: -12
4) C[C@@H](NC(=O)c1c[nH]c2ncc(-c3nn(C)c4cc(Cl)ccc34)nc12)C(=O)N1CC(C#N)C1: -12
5) C[C@@H](NC(=O)c1c[nH]c2ncc(-c3cn(C)c4cc(Cl)ccc34)nc12)C(=O)N1CC(C#N)C1: -14

* * *

system: CAMK2A or CAMK2B or CAMK2D or CAMK2G (human) (UniProt Q13555+Q13557+Q9UQM7+Q13554)
Sequence (Q13554 whole entry, looked up): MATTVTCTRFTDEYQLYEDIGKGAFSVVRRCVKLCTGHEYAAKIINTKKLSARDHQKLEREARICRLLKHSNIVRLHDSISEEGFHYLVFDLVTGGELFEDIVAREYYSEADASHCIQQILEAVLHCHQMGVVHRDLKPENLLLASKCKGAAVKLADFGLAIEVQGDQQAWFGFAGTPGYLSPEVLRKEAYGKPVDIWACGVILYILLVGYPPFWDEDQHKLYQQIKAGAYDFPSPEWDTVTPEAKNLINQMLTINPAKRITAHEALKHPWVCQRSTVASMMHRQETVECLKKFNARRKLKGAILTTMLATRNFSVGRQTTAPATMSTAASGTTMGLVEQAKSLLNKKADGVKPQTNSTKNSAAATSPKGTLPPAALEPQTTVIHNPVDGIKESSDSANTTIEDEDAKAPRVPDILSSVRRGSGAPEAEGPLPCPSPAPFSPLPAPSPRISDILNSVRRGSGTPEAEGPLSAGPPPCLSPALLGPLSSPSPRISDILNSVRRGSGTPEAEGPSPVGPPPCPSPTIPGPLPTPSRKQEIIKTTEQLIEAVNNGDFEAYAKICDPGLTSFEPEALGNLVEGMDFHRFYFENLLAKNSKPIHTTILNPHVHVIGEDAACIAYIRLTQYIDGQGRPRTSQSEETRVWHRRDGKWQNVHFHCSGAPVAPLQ
Sequence (Q13555 whole entry, looked up): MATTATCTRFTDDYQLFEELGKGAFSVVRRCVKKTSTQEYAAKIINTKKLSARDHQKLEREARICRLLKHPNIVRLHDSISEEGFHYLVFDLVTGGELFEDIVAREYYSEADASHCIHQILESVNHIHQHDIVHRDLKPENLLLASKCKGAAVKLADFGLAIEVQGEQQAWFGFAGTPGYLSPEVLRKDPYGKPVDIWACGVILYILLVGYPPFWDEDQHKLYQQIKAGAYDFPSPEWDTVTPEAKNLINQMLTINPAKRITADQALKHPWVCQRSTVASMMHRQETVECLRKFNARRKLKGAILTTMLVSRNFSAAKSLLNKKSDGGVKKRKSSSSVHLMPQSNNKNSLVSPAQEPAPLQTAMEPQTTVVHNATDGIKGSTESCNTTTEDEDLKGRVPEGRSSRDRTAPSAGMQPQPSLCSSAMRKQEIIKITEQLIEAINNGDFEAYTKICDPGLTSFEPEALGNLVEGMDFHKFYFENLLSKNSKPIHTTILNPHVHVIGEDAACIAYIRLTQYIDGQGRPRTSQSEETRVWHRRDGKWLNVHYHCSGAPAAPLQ
Sequence (Q13557 whole entry, looked up): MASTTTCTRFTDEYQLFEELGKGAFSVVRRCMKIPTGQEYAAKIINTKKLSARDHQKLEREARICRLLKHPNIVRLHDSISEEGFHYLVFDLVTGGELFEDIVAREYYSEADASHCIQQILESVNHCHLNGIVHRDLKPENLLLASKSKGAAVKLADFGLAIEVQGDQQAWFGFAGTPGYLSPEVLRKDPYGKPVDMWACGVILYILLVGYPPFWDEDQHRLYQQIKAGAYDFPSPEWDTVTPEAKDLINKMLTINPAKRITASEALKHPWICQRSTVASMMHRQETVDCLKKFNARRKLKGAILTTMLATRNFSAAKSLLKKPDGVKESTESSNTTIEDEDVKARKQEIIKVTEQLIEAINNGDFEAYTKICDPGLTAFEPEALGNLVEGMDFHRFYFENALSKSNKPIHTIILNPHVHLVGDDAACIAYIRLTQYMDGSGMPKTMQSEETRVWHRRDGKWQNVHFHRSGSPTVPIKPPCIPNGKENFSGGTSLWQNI
Sequence (Q9UQM7 whole entry, looked up): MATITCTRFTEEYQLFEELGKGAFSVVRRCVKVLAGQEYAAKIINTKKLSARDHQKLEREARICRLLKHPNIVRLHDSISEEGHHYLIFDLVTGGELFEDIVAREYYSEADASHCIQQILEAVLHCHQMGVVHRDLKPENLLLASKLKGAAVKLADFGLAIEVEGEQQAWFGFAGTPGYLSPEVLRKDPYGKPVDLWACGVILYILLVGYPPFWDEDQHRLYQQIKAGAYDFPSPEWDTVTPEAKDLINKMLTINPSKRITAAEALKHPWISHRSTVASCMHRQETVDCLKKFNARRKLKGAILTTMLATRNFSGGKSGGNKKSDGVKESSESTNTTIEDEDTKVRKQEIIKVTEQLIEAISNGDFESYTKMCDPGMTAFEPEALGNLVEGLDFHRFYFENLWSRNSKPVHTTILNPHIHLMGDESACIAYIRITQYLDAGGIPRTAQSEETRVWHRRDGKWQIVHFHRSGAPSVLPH
recorded-conditions: compound 10.0 µM
inhibition values, listed per item
measurement-type: inhibition (%)

1. C[C@@H](NC(=O)c1c[nH]c2ncc(-c3ncn4cc(F)cc(F)c34)nc12)C(=O)N1CC(C#N)C1: -51
2. CC[C@@H](NC(=O)c1c[nH]c2ncc(-c3nn(C)c4cc(Cl)ccc34)nc12)C(=O)N1CC(C#N)C1: -35
3. C[C@@H](NC(=O)c1c[nH]c2ncc(-c3nn(C)c4cc(Cl)ccc34)nc12)C(=O)N1CC(C#N)C1: -179
4. C[C@@H](NC(=O)c1c[nH]c2ncc(-c3nn(C)c4cc(Cl)cc(F)c34)nc12)C(=O)N1CC(C#N)C1: -52
5. C[C@@H](NC(=O)c1c[nH]c2ncc(-c3cn(C)c4cc(Cl)ccc34)nc12)C(=O)N1CC(C#N)C1: -53
